From: patent US20260028424A1

target: human c-Kit (SPR) (human, UniProt P10721 26-520, limits assumed); assay: SPR, single-cycle kinetics, Human C-kit
Sequence (P10721 26-520 limits assumed): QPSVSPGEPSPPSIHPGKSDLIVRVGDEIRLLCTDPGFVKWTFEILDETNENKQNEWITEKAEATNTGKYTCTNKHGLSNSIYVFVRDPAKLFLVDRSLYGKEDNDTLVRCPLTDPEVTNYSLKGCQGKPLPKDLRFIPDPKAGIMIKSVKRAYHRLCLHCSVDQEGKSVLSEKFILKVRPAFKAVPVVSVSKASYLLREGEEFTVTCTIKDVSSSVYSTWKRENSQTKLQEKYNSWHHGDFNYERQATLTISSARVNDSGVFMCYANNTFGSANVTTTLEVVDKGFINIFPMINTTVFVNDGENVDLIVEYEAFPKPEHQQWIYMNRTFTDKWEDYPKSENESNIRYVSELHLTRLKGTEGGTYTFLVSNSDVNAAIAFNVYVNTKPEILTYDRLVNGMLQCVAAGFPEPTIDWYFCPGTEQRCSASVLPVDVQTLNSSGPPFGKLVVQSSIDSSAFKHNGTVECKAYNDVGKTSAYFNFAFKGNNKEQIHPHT
MEASUREMENT_TYPE: kon (M⁻¹ s⁻¹)
Hi! Could you send only the number? It should be in M⁻¹ s⁻¹, unit omitted.

BINDER	MEASUREMENT_UNIT	kon
FJ2156_MH1_A x F6_12C huIgG1 KIH (bispecific antibody, V domains shown, also called MH1_A/F6.12_C) VH 1: EVQLVQSGAEVKKPGASVKVSCKASGYTFTDYYMNWVRQAPGQGLEWMGRIYPGSGNTYYAQKFQDRVTMTRDTSTSTVYMELSSLRSEDTAVYYCARGVYYYDYWGQGTLVTVSS VH 2: QVQLVQSGAEVKKPGESLKISCKGSGYRFASNWIGWVRQMPGKGLEWMGEIYPGDSNTRYRPSFQGQVTISADKSISTAYLQWSSLKASDTAMYYCARKDYYYGIMDVWGQGTTVTVSS VL: DIQMTQSPSSLSASVGDRVTITCRASQGIRTNLAWFQQKPGKAPKSLIYAASSLQSGVPSRFSGSGSGTDFTLTISSLQPEDFATYYCQQYNSYPRTFGGGTKVEIK	M⁻¹ s⁻¹	199000
FJ2156_MH1_C x F6_12B huIgG1 KIH (bispecific antibody, V domains shown, also called MH1_C/F6.12_B) VH 1: QVQLVQSGAEVKEPGASVKVSCKASGYTFTDYYMNWVRQAPGQGLEWMGRIYPGSGNTYYAQNFQGRVTMTRDTSTSTVYMELSSLRSEDTAVYYCARGVYYYDYWGQGTLVTVSS VH 2: QVQLVQSGAEVKKPGESLKISCKGSGYRFASNWIGWVRQMPGKGLQWMGEIYPGDSNTRYSPSFQGQVTISADKSISTAYLQWSSLKASDTAMYYCARKDYYYGIMDVWGQGTTVTVSS VL: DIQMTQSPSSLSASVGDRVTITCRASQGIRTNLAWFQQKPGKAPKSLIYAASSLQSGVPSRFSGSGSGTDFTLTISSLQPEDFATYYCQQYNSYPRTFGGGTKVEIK	M⁻¹ s⁻¹	213000

Turning now to a further record.
Lookup: Indicate the recorded kon value for this binder: MH1/F6.12 bispecific (parental, before pI engineering) (bispecific antibody, V domains shown, Knob-in-hole IgG1null bispecific with human Ckappa; also called parental bispecific MH1/F6.12) VH 1: QVQLVQSGAEVKKPGASVKVSCKASGYTFTDYYMNWVRQAPGQGLEWMGRIYPGSGNTYYAQKFQGRVTMTRDTSTSTVYMELSSLRSEDTAVYYCARGVYYYDYWGQGTLVTVSS VH 2: EVQLVQSGAEVKKPGESLKISCKGSGYRFASNWIGWVRQMPGKGLEWMGEIYPGDSNTRYSPSFQGQVTISADKSISTAYLQWSSLKASDTAMYYCARKDYYYGIMDVWGQGTTVTVSS VL: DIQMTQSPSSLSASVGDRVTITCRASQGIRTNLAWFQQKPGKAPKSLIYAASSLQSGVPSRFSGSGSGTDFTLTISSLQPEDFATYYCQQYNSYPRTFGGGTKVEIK
Found: 217000
